experiment: Solubility experiments (approximate solubility by solvent aliquot addition); type: physicochemical; conditions: organic solvent or mixture, thermodynamic from solid; Solvent: 2-Propanol (IPA); ca. 50° C.; read-out: Solubility (mg/mL) (ca. 50° C.)

molecule: O=C(O)CNC(=O)c1ncc(-c2cccc(Cl)c2)cc1O [Form A of Compound (I)]
unitAnnotation: mg/mL
solubility: 13

---

test: Solubility experiments (approximate solubility by solvent aliquot addition); format: physicochemical; settings: organic solvent or mixture, thermodynamic from solid; Solvent: Isobutyl acetate (iBuOAc); RT (ca. 22° C.); read-out: Solubility (mg/mL) RT (ca. 22° C.)

molecule: O=C(O)CNC(=O)c1ncc(-c2cccc(Cl)c2)cc1O [Form A of Compound (I)]
solubility: < 20 mg/mL

Sourced from patent US12419877B2
